These entries and their values trace back to patent US10517889B2.

Listed next: entries and their corresponding % inhibition of SMAD7 mRNA expression.
Tested on: human SMAD7 mRNA
assay.comment: Dose-dependent inhibition of human SMAD7 mRNA expression in Hep3B cells (Example 3, Study 1 and 2)
Format: cell-based
conditions.used: 20000.0 nM, electroporation, approximately 16 hours, Study 1
Description: The antisense oligonucleotides were tested in a series of experiments that had similar culture conditions as described below. Cells were plated at a density of 20,000 cells per well and transfected using electroporation with 0.31 μM, 1.25 μM, 5.00 μM, or 20.00 μM concentrations of antisense oligonucleotide, as specified in the Tables below. […] After a treatment period of approximately 16 hours, RNA was isolated from the cells and SMAD7 mRNA levels were measured by quantitative real-time PCR. […]
Strand notation (5' to 3'): a small letter for the sugar, then the base; units joined by * are phosphorothioate-linked, units joined directly phosphodiester-linked; [ ] holds rarer units or linkages, { } end groups; capitals alone tell only the bases. e = 2'-O-(2-methoxyethyl) (MOE); [5mC] = 5-methylcytosine; d = 2'-deoxy (DNA)

{"substance": "771815 (antisense e[5mC]*eT*e[5mC]*e[5mC]*e[5mC]*dT*dT*dT*dT*d[5mC]*dA*d[5mC]*dT*dG*d[5mC]*eT*e[5mC]*e[5mC]*eA*e[5mC]) [compound 771815]", "% inhibition of SMAD7 mRNA expression": "46%"}
{"substance": "771831 (antisense e[5mC]*eG*eA*eT*e[5mC]*dA*dT*dT*dT*dT*d[5mC]*dT*dA*d[5mC]*dA*e[5mC]*e[5mC]*eT*eT*eT) [compound 771831]", "% inhibition of SMAD7 mRNA expression": "51%"}
{"substance": "771885 (antisense e[5mC]*eA*eA*eG*eT*d[5mC]*dT*d[5mC]*dT*dT*dA*d[5mC]*d[5mC]*dT*d[5mC]*eA*e[5mC]*e[5mC]*e[5mC]*eA) [compound 771885]", "% inhibition of SMAD7 mRNA expression": "45%"}
{"substance": "771399 (antisense eG*e[5mC]*e[5mC]*e[5mC]*eG*dG*dG*d[5mC]*dA*dG*dG*dA*dG*d[5mC]*dG*eG*e[5mC]*eG*eG*e[5mC]) [compound 771399]", "% inhibition of SMAD7 mRNA expression": "53%"}
{"substance": "771641 (antisense eA*eG*eT*eT*eA*dG*dG*dT*dG*dT*d[5mC]*dA*dG*d[5mC]*d[5mC]*eT*eA*eG*eG*eA) [compound 771641]", "% inhibition of SMAD7 mRNA expression": "50%"}
{"substance": "771461 (antisense eG*eT*eA*eG*eA*dG*d[5mC]*d[5mC]*dT*d[5mC]*d[5mC]*d[5mC]*d[5mC]*dA*d[5mC]*eT*e[5mC]*eT*e[5mC]*eG) [compound 771461]", "% inhibition of SMAD7 mRNA expression": "39%"}
{"substance": "483663 (antisense e[5mC]*eA*eG*e[5mC]*e[5mC]*dT*d[5mC]*dT*dT*dG*dA*d[5mC]*dT*dT*d[5mC]*e[5mC]*eG*eA*eG*eG) [compound 483663]", "% inhibition of SMAD7 mRNA expression": "27%"}
{"substance": "771663 (antisense eT*eT*e[5mC]*e[5mC]*eA*dA*dT*dG*dA*dG*dA*dA*dT*dG*d[5mC]*eT*eT*e[5mC]*eT*e[5mC]) [compound 771663]", "% inhibition of SMAD7 mRNA expression": "56%"}

Give its % inhibition of SMAD7 mRNA expression value. Item: 771464 (antisense eG*eA*eG*eA*eG*dG*dG*d[5mC]*dT*d[5mC]*d[5mC]*dT*dG*dG*dA*e[5mC]*eA*e[5mC]*eA*eG) [compound 771464]
50%

Give its % inhibition of SMAD7 mRNA expression value. Item: 771572 (antisense e[5mC]*eT*eT*eG*eG*dG*dA*d[5mC]*dT*dG*d[5mC]*dA*dA*dA*d[5mC]*e[5mC]*eT*e[5mC]*eT*e[5mC]) [compound 771572]
13%

Give its % inhibition of SMAD7 mRNA expression value. Item: 771902 (antisense eG*eG*eG*eT*eT*d[5mC]*dT*d[5mC]*d[5mC]*dA*dG*d[5mC]*d[5mC]*dG*d[5mC]*eT*e[5mC]*eA*eG*eA) [compound 771902]
59%

Give its % inhibition of SMAD7 mRNA expression value. Item: 771717 (antisense eT*e[5mC]*e[5mC]*e[5mC]*eA*dT*d[5mC]*dT*dA*dT*d[5mC]*dG*dA*dA*dT*e[5mC]*eA*e[5mC]*e[5mC]*e[5mC]) [compound 771717]
30%

Give its % inhibition of SMAD7 mRNA expression value. Item: 771386 (antisense e[5mC]*eT*eG*eG*eA*d[5mC]*dA*dG*dT*d[5mC]*dT*dG*d[5mC]*dT*dG*eT*eG*eG*eA*eT) [compound 771386]
60%

Give its % inhibition of SMAD7 mRNA expression value. Item: 771576 (antisense eG*eG*eG*e[5mC]*eA*dG*dG*dA*dG*dA*dG*dA*d[5mC]*dA*d[5mC]*e[5mC]*eG*e[5mC]*eT*eT) [compound 771576]
75%

Give its % inhibition of SMAD7 mRNA expression value. Item: 771900 (antisense eA*eT*eG*e[5mC]*e[5mC]*d[5mC]*dA*d[5mC]*d[5mC]*dA*dG*dT*d[5mC]*dT*dT*e[5mC]*e[5mC]*eT*eG*eA) [compound 771900]
29%

Give its % inhibition of SMAD7 mRNA expression value. Item: 771769 (antisense eG*eG*e[5mC]*eT*eG*dG*dG*dA*dA*dT*d[5mC]*dA*dG*dA*dA*e[5mC]*eT*eT*eG*eG) [compound 771769]
53%

Give its % inhibition of SMAD7 mRNA expression value. Item: 771416 (e[5mC]*e[5mC]*e[5mC]*e[5mC]*eA*dT*dG*d[5mC]*dG*d[5mC]*dT*d[5mC]*dG*dG*d[5mC]*eT*eG*eT*e[5mC]*e[5mC]; antisense) [compound 771416]
35%

Give its % inhibition of SMAD7 mRNA expression value. Item: 771869 (antisense eA*eG*e[5mC]*e[5mC]*eA*dA*dG*dT*dG*dT*d[5mC]*d[5mC]*dA*dT*d[5mC]*eA*eA*eG*e[5mC]*eA) [compound 771869]
43%

Give its % inhibition of SMAD7 mRNA expression value. Item: 771573 (antisense eG*e[5mC]*eT*eT*eG*dG*dG*dA*d[5mC]*dT*dG*d[5mC]*dA*dA*dA*e[5mC]*e[5mC]*eT*e[5mC]*eT) [compound 771573]
56%

Give its % inhibition of SMAD7 mRNA expression value. Item: 771414 (eT*e[5mC]*eG*eG*e[5mC]*dT*dG*dT*d[5mC]*d[5mC]*dG*dT*d[5mC]*dG*d[5mC]*e[5mC]*e[5mC]*e[5mC]*eT*eT; antisense) [compound 771414]
33%

Give its % inhibition of SMAD7 mRNA expression value. Item: 771610 (antisense eA*e[5mC]*e[5mC]*eT*eG*dA*dT*dG*dT*d[5mC]*dA*d[5mC]*d[5mC]*dA*dG*eG*eG*e[5mC]*eA*eG) [compound 771610]
38%
